These data points were gathered from ChEMBL document CHEMBL1143088.

assay: Ratio of drug level in brain to blood in FCA-induced hypersensitivity rat at 10 mg/kg, po administered with NMP as vehicle; format: ADME, organism-based; parameters: dose 10 mg/kg, route oral
observation_type: Kp

Cc1cc(NC(=O)OC(C)C)nn1Cc1cc(Cl)ccc1OCc1ccccc1
2.2

----------
assay: Distribution coefficient, logD at pH 7.4; format: physicochemical; conditions: octanol/water
observation_type: logD

Cc1cc(NC(=O)OCC(C)C)nn1Cc1cc(Cl)ccc1OCc1ccccc1
3.3
Cc1cc(C(=O)Nc2cccc(F)c2)nn1Cc1cc(Cl)ccc1OCc1ccccc1
2.8
Cc1cc(C(N)=O)nn1Cc1cc(Cl)ccc1OCc1ccccc1
3.7
Cc1cc(C(N)=O)nn1Cc1cc(Cl)ccc1OCC(C)C
3.1
Cc1cc(NC(=O)CC2CCCCC2)nn1Cc1cc(Cl)ccc1OCc1ccccc1
3.2

----------
assay: Ratio of drug level in brain to blood in FCA-induced hypersensitivity rat at 10 mg/kg, po administered with DMSO as vehicle; format: ADME, organism-based; set-up: dose 10 mg/kg, route oral
observation_type: Kp

Cc1cc(NC(=O)OC(C)(C)C)nn1Cc1cc(Cl)ccc1OCc1ccccc1
2.26

----------
test system: Blood; assay: Drug uptake in FCA-induced hypersensitivity rat blood at 1 mg/kg, po administered with NMP as vehicle; format: ADME, organism-based; design: dose 1 mg/kg, route oral; conditions: in vivo, read-out: Drug uptake
observation_type: concentration

Cc1cc(NC(=O)OC(C)C)nn1Cc1cc(Cl)ccc1OCc1ccccc1
153 nM

----------
Measured Ki of individual entries
Target: Prostaglandin E2 receptor EP3 subtype (Homo sapiens)
Sequence (P43115 whole entry): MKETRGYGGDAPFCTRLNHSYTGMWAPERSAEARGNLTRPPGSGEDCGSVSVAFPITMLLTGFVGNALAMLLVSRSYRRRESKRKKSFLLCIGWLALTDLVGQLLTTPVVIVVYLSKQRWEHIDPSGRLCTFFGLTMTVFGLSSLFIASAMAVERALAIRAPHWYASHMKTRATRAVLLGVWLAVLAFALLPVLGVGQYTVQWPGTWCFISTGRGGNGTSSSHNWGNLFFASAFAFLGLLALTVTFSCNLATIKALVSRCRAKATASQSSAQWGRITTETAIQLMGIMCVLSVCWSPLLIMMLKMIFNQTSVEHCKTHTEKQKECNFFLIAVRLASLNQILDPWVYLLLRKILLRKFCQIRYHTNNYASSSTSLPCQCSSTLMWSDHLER
Test: Antagonist activity at PGE2-EP3 receptor assessed as PGE2-induced intracellular calcium mobilization
observation_type: Ki

Cc1cc(NC(=O)OC(C)C)nn1Cc1cc(Cl)ccc1OCc1ccccc1
> 10 µM
Cc1cc(NC(=O)OC(C)(C)C)nn1Cc1cc(Cl)ccc1OCc1ccccc1
> 10 µM

----------
assay: Clearance in blood in rat at 10 mL/h/kg, iv; format: ADME, organism-based; conditions: whole blood
Measured clearance of individual entries
observation_type: clearance (mL/min/kg)

Cc1cc(NC(=O)OCc2ccccn2)nn1Cc1cc(Cl)ccc1OCc1ccccc1
98
Cc1cc(NC(=O)c2ccccc2)nn1Cc1cc(Cl)ccc1OCc1ccccc1
50
Cc1cc(NC(=O)C2CCCCC2)nn1Cc1cc(Cl)ccc1OCC(C)C
68
Cc1cc(NC(=O)OCC(C)C)nn1Cc1cc(Cl)ccc1OCc1ccccc1
124
Cc1cc(NC(=O)Cc2ccccc2)nn1Cc1cc(Cl)ccc1OCc1ccccc1
59
Cc1cc(NC(=O)O[C@H]2CCOC2)nn1Cc1cc(Cl)ccc1OCc1ccccc1
86
Cc1cc(C(=O)NCc2ccccc2)nn1Cc1cc(Cl)ccc1OCc1ccccc1
75
Cc1cc(C(=O)NCc2ccccn2)nn1Cc1cc(Cl)ccc1OCc1ccccc1
68
Cc1cc(NC(=O)C2CCOCC2)nn1Cc1cc(Cl)ccc1OCc1ccccc1
55
Cc1cc(NC(=O)OC(C)(C)C)nn1Cc1cc(Cl)ccc1OCc1ccccc1
42
